# System: T1, biotin-labeled RSV-IQN57 (Respiratory Syncytial Virus (F1 part), biotin label (position not stated in the example); captured on streptavidin-allophycocyanin in the assay)
# T1 construct: Synthetic peptide; In the assay it was pre-mixed with streptavidin-APC (final 100 nM IQN57-biotin, 10 nM streptavidin-APC); also called IQN57-biotin; IQN57-APC
# T1 peptide: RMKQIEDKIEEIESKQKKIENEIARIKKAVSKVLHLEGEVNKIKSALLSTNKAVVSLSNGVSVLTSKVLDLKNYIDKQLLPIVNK
# Procedure Summary: time-resolved FRET competition, IQN57-APC/C45-Eu assay; competitor C45-Eu
Field: pIC50. Provide a value for each of the binders that follow.
Please note pIC50 is a logarithmic value: minus log10 of concentration in mol/L. Answer with that number alone.

Exercise: Value lookup for pIC50; key = VFPSDEFDASISQVNEKINQSLAFIRKSDELLHNVNAGK [RSV-C39]
Solution: 7.19

Exercise: Let us now turn to NFYDPLVFPSDEFDASISQVNEKINQSLAFIRKSDELLHNVNAGK [RSV-C45]
Solution: 7.13
